Source of measurements: patent US20240150473A1

# experimental.system: T1, Lrp6E3E4 domain (Homo sapiens, UniProt O75581)
# T1 sequence (O75581 631-1244 limits assumed): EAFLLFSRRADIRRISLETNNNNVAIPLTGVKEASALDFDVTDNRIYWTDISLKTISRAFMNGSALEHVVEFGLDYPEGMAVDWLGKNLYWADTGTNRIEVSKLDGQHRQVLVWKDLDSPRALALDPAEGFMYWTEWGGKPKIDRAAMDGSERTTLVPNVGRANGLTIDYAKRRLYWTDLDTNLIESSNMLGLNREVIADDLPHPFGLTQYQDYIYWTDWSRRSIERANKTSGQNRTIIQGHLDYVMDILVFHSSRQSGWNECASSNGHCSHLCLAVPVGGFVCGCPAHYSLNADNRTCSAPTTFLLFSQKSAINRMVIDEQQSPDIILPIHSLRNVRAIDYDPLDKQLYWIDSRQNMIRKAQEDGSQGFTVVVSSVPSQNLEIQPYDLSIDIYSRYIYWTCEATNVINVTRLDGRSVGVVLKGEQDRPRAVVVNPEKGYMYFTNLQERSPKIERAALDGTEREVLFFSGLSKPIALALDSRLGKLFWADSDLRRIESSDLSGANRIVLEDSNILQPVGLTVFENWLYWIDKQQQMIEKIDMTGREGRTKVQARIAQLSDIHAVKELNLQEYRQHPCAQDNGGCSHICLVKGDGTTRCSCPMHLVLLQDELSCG
# measurement.description: Bio-layer interferometry (Octet) binding kinetics of VHH26 constructs
# condition.description: SEC fraction C1/G1 (parental D3); 1:1 binding model
Items are presented alongside their recorded kon.
The answer should be written as a number, with no unit following it.

For the molecule shown here, VHH26-H5: humanized variant of LRP6 binding VHH26, SEQ ID NO: 23 (protein, VHH26_H5) VHH: EVQLVESGGGLVQPGGSLRLSCAGSGRIFAIYDIAWYRQAPGKGREWVAMIRPVVTEIDYADSVKGRFTISRDNSKKTVYLQMNSLRAEDTAVYYCNAKRPWGSRDEYWGQGTTVTVSS , give the reported kon.
4.28E+05

For the molecule shown here, VHH26-H3: humanized variant of LRP6 binding VHH26, SEQ ID NO: 21 (protein, VHH26_H3) VHH: EVQLVESGGGLVQPGGSLRLSCAGSGRIFAIYDIAWYRQAPGKGREWVAMIRPVVTEIDYADSVKGRFTISRDNSKNTVYLQMNSLRAEDTAVYYCNAKRPWGSRDEYWGQGTTVTVSS , give the reported kon.
1.63E+04

For the molecule shown here, VHH26-H2: humanized variant of LRP6 binding VHH26, SEQ ID NO: 20 (protein, VHH26_H2) VHH: EVQLVESGGGLVQPGGSLRLSCAGSGRIFAIYDIAWYRQAPGKGLEWVAMIRPVVTEIDYADSVKGRFTISRDNSKNTVYLQMNSLRAEDTAVYYCNAKRPWGSRDEYWGQGTTVTVSS , give the reported kon.
1.48E+05

For the molecule shown here, VHH26 (parental): parental camelid LRP6 binding VHH, SEQ ID NO: 25 (protein, VHH26 (parental)) VHH: DVQLVESGGGLVQAGGSLRLACAGSGRIFAIYDIAWYRHPPGNQRELVAMIRPVVTEIDYADSVKGRFTISRNNAMKTVYLQMNNLKPEDTAVYYCNAKRPWGSRDEYWGQGTQVTVSS , give the reported kon.
8.10E+05

For the molecule shown here, VHH26-H6: humanized variant of LRP6 binding VHH26, SEQ ID NO: 24 [VHH26-H6] (protein, VHH26_H6) VHH: EVQLVESGGGLVQPGGSLRLSCAGSGRIFAIYDIAWYRQAPGKGRELVAMIRPVVTEIDYADSVKGRFTISRDNSKKTVYLQMNSLRAEDTAVYYCNAKRPWGSRDEYWGQGTTVTVSS , give the reported kon.
4.52E+04

For the molecule shown here, VHH26-H4: humanized variant of LRP6 binding VHH26, SEQ ID NO: 22 [VHH26-H4] (protein, VHH26_H4) VHH: EVQLVESGGGLVQPGGSLRLSCAGSGRIFAIYDIAWYRQAPGKGRELVAMIRPVVTEIDYADSVKGRFTISRDNSKNTVYLQMNSLRAEDTAVYYCNAKRPWGSRDEYWGQGTTVTVSS , give the reported kon.
1.44E+05
